Data provenance is the domain aggregation screens of Martell et al. (2025).

# ASSAY COMMENT: soluble fraction after stress (log2 fold change); higher = more stays soluble; pooled small domains, quantitative proteomics
# APPLIED CONDITIONS: stress: pH 4
RECORDED METRIC: soluble fraction (log2)
Quick one: just the number, no unit, thanks!

Enquiry: Provide one value: measured soluble fraction (log2) of `HMSKLQETEIPVALEVEKIPGLSNELKQKLLKIKPQTIGQASRISGITPAAISILMIYIKKNESISAVK`
Return: -0.399

Enquiry: Identify the reported soluble fraction (log2) for the following entry. `HMGDLVKGKVVGYDPDNVIVDIGAKTNALVPNREAVVEAGDDIKETLKKGNEYEFLIIRDEDEEGEFL`
Return: 0.0813

Enquiry: Look up and report measured soluble fraction (log2) for this entry: `HMNDRERIGKRIAQLRMEAGISQYKLAELTGLAPGNIARIETGKYSTGIDILSKIGDALGYQLDFI`
Return: -0.414

Enquiry: Could you please provide reported soluble fraction (log2) for `HMSLSKQETEFLTTFSASGKRVFTYQQATDYWQSKVAATNVLGRLVRKGWLQRLERGLYMIIPLEAGPERF` ? Thanks!
Return: -0.807

Enquiry: Give me measured soluble fraction (log2), please, for this sequence: `HMGKPTPASQVATRWLAGDLPETLPVAGPAPSFETLARSVSTDFHPRAVLQELLRLGVAEEADGRVRLLK`
Return: -0.0325

Enquiry: Please give measured soluble fraction (log2) of the following entry: `HMENRILLSEDSLKHLAQDIPIDIIEKLSVLKDQIYHRYDDFNSIVQGLLGGENYLKYKDNILSFVEQ`
Return: -0.311

Enquiry: Find the measured soluble fraction (log2) of `HMDPYLSGLLQKLAETDKKISFTRLRSEDLDGESREAIYEFIEKYSGRFGVRWLLNEFGLSPSVYYNYLHS` and report it.
Return: -0.644

Enquiry: # return recorded soluble fraction (log2) for entry `HMRMLSEGAQRMLRGLAVLEEASADRLLELHQGDYPGFVRSLFALESAGLFQRNGSGTWIRR`
Return: -0.996

Enquiry: Fill in soluble fraction (log2) for record `HMEAEDLRDWVGARGIAYTALRPAGIAVVNGRRVDVVSEGAFVNRDDPVEVVRVEGRRIVVKP`
Return: -0.106

Enquiry: Return the recorded soluble fraction (log2) value; entry: `HMTEKSTRSVPQEHEGKRLDVAAALLFPVYSRSELARRIDAGYLLLNGKGSTPKTKVHELDLIELLEV`
Return: -1.65

Enquiry: Entry `HMSMVGSVNKQGRPFALLRVDNLLYQVKVGDYLGQNYGRITQIDETQIALREIVQDAAGEWIERPGVLQL` needs its soluble fraction (log2) filled in; supply it.
Return: -0.256

Enquiry: Tell me soluble fraction (log2) reported for `HMDQEDAYMQVRQVFDTLLVSELSKRIFAWRFFEGKSFAEWPGAESQKFLYDTFNRILLIISAKIRRKNA`
Return: -0.522

Enquiry: Quickly give me recorded soluble fraction (log2) for `HMLETLVYPNPTTDKILLSSPVDYHLFSLKGELVLEGRGSSIEVSQLSKGVYFLNTKTQTFKIIK`
Return: -0.156

Enquiry: Determine its reported soluble fraction (log2): `HMHADIAATVVATMRQLGVLGLPRNYEIFYEALSGTNRELSLAVVSLSNRPTQDDLDRIGRRFFA`
Return: -0.426

Enquiry: Tell us which soluble fraction (log2) value is on record for `HMPLDISDDSKAVLKLLKNDSNELNTVKSASGLSNKKWDKTIKELTKNKIVSVSKTEDGLYIHLI`
Return: 0.336

Enquiry: Quick one: give measured soluble fraction (log2) for `HMQDENAVTYLLEIKNADANDIASVLKTLKSPDADVVVYKTLNMIIFTGQGSEINGLVKVARQLDRK`
Return: -1.3

Enquiry: Name the recorded soluble fraction (log2) of the sequence listed here: `HMHPKTPDELLALMSEEQRGQIEQLAKLVLMAVSYSGASYYDAVTTMYPRMSEERRRIITHVLNTASP`
Return: -0.825

Enquiry: Check the records and state soluble fraction (log2) for `HMKPSNLTSDERTQLLAQLKTAMGSDQYNQLRRQVGEEKLLEYVLDNVPGIQEEILGNRAVQENIDLH`
Return: -0.266

Enquiry: Find the measured soluble fraction (log2) of `HMTTLTPIGKMKGEIDGDFEAFYLAVDKDGQVYLNRDPDYSENRYEKSRGWELVTREQLAVYEKELHFIP` and report it.
Return: -0.25

Enquiry: Supply measured soluble fraction (log2) of `HMPSLNDRPDDVLYLFSYFLQSFSHRQVSLPKILKKALIQHDWWGNIRELHSVALRYYIFGDTLNGAYDSL` in your reply.
Return: -0.895

Enquiry: Specify reported soluble fraction (log2) for the sequence shown: `HMKIRKAVIPAAGLGTRVLPASKSIPKEMLPIVDKPVIQYIVEEAVKAGITEILIITGRGKGAIEDHFDRS`
Return: 0.0275

Enquiry: In one line, give reported soluble fraction (log2) of the entry `HMENEIVMPVQINGKKRGDLTIARDADQASIQKAVLELDFVKAALNGGSPKKVIVVPQRIVNVV` .
Return: 0.127

Enquiry: Let me know recorded soluble fraction (log2) for `HMERDIATKHEVNRTVEAYSDIVKTLNLPSHKINLVEISFFNILKRSKPSPRENSILLGLAQKIKLHLEKK` , thanks.
Return: -0.473

Enquiry: Fill in reported soluble fraction (log2) for this entry: `HMHPLFRVVLAGEPNGVGLDDWLTRHEAELINGPSAIGVLTVKIAMGRRSFETVLDEIRADGETIFVEPV`
Return: -2.02

Enquiry: Quote soluble fraction (log2) reported for `HMQNLISSDEAKNIALQHANLTDNQVTFIKVSKDYDDGIHIYEVEFHYNNREYNYDINAINGTILSYEQ` please.
Return: -0.173

Enquiry: Let me know recorded soluble fraction (log2) for `HMIENGILELKGKTGVAQTVLRPSGKVLIDDEIYDAVALTGYIEKADKVLVTKVEATQLYVEK` , thanks.
Return: -0.289

Enquiry: Give recorded soluble fraction (log2). `HMEPREALDGLISERGETYASISRLLGRNSAYIQQFIKRGSPARLDQSDIALLALHFDVPVEMLGGKE`
Return: 0.054

Enquiry: Specify measured soluble fraction (log2) for `HMTFFDDLLYQAKAAVDNDPSIKPSLHNRAIIEILYQQGVFNMKNAVEHVAELLEISKNTVYLHLRSVKG` .
Return: -0.976

Enquiry: Identify measured soluble fraction (log2) corresponding to `HMRGAARRDRAVGERAVSKDTILDATRALLRKGSALEIRAIDIAEESGLSRQTVFQYYPVIRLIFFELSD`
Return: 0.155

Enquiry: Give reported soluble fraction (log2) value for `HMNRPYVELFSGLGQEEAQQIVQKLQEDEVDYKFSGDSTILVKEDVVDQTKATLVQEGYPKS`
Return: -0.392

Enquiry: Return the recorded soluble fraction (log2) value; entry: `HMRKEDYLPIGSVINMDDRKFRVDSVDFDKDKVSLQDMALADARMPIFWEEPLTVVRELYEQQDE`
Return: -0.899

Enquiry: Output soluble fraction (log2) of `HMTSPLQIHPNPATKHIELGLESPEVVLIKDINGKTVYQELVAPNQYIDIEHLKNGIYFIESKNKFGKLIK`
Return: 0.29
